- Test system: feline panleukopenia virus (FPV)
- Assay remarks: CPE visual scoring assay, FPV in CrFK cells
- Format: cell-based
- Test conditions: Feline panleukopenia virus, CRFK, read-out: EC50-value (μM) for FPV, Table 4a; CPE visual scoring assay
Outcome measure: EC50 (µM)
Report as a plain number; the unit µM is understood.

[
  {
    "Compound": "CCC1(N)C2CC3CC(C2)CC1C3 (centres unmarked) [2-ethyladamantan-2-amine]",
    "Value observed": 2.42
  }
]

Alright, here's another compound for you.
// query EC50 value for entry CC1(N)C2CC3CC(C2)CC1C3 (centres unmarked) [2-methyladamantan-2-amine]
1.95

====

- System: canine parvovirus 2c (CPV-2c)
- Assay remarks: CPE visual scoring assay, CPV-2c in CrFK cells
- Assay type: cell-based
- Test conditions: Canine parvovirus, CRFK, 96 h, read-out: EC50-value (μM) for CPV-2c, Table 1; CPE visual scoring, CrFK cells, 10 TCID50, 4 days
Outcome measure: EC50 (µM)
Reply numerically in µM, unit not repeated.

Quick check: EC50 of NC12CC3CC(CC(C3)C1)C2 ?
22.6

====

- Test system: canine parvovirus 2c (CPV-2c)
- Assay remarks: CPE visual scoring assay, CPV-2c in CrFK cells
- Type: cell-based
- Test conditions: Canine parvovirus, 96 h; Table 1; CPE visual scoring, CrFK cells, 10 TCID50, 4 days; read-out: EC50-value (μM) for CPV-2c
Where a name gives a salt, the structure may show the parent alone.
Listing: EC50 of selected compounds
Reply numerically in µM, unit not repeated.

[
  {
    "Compound": "NC1C2CC3CC(C2)CC1C3 (centres unmarked) [2-adamantylamine HCl, 2-adamantylamine hydrochloride]",
    "EC50 [µM]": 5.12
  },
  {
    "Compound": "CC12CC3CC(C)(C1)CC(N)(C3)C2 [Memantine, memantine]",
    "EC50 [µM]": 23.9
  }
]

Query: EC50; subject: Cl.NC12CC3CC(CC(C3)C1)C2 [Amantadine HCl, 1-Aminoadamantane hydrochloride]
14

====

- Tested on: canine parvovirus 2c (CPV-2c)
- Assay remarks: CPV-2c DNA reduction by quantitative PCR, CrFK cells
- Format: cell-based
- Test conditions: 96 h, Table 2, viral DNA in supernatant by quantitative PCR, CrFK cells, 4 days, read-out: EC50-value (μM) for CPV-2c, DNA reduction
Outcome measure: EC50 (µM)
Field format: number, assumed µM, no unit text.

[
  {
    "Compound": "CC12CC3CC(C)(C1)CC(N)(C3)C2 [Memantine, memantine]",
    "Value observed": 17.9
  }
]

# next compound below
For the compound shown here, Cl.NC12CC3CC(CC(C3)C1)C2 [Amantadine HCl, 1-Aminoadamantane hydrochloride] , give the reported EC50.
6.59

====

# EC50 values compiled below
- Test system: feline panleukopenia virus (FPV)
- Assay remarks: CPE visual scoring assay, FPV in CrFK cells
- Type: cell-based
- Test conditions: Feline panleukopenia virus, CRFK, 96 h, Table 1; CPE visual scoring, CrFK cells, 10 TCID50, 4 days; read-out: EC50-value (μM) for FPV
Where a name gives a salt, the structure may show the parent alone.
Numeric only. Scale: µM

Some solved entries appear below for comparison.
[
  {
    "Molecule": "CC12CC3CC(C)(C1)CC(N)(C3)C2 [Memantine, memantine]",
    "Test target": "feline panleukopenia virus (FPV)",
    "Value units": "µM",
    "EC50": 23.3
  },
  {
    "Molecule": "NC1C2CC3CC(C2)CC1C3 (stereo not drawn) [2-adamantylamine HCl, 2-adamantylamine hydrochloride]",
    "Test target": "feline panleukopenia virus (FPV)",
    "Value units": "µM",
    "EC50": 17.3
  }
]

Now look at this entry.
What EC50 value was documented for this molecule, NC12CC3CC(CC(C3)C1)C2 ?
18.7
